Listed here: items and their measured pIC50.
molecular target: skeletal muscle ryanodine receptor (Oryctolagus cuniculus, UniProt P11716); construct: Rabbit skeletal muscle triads were prepared as previously described; from tissue; host or cells: rabbit skeletal muscle triads; experiment: [3H]Ryanodine competition binding to rabbit skeletal muscle triads; conditions: IC50 for binding to the ryanodine receptor, rabbit skeletal membranes, from FIG. 5; unit inferred
Sequence (P11716 whole entry): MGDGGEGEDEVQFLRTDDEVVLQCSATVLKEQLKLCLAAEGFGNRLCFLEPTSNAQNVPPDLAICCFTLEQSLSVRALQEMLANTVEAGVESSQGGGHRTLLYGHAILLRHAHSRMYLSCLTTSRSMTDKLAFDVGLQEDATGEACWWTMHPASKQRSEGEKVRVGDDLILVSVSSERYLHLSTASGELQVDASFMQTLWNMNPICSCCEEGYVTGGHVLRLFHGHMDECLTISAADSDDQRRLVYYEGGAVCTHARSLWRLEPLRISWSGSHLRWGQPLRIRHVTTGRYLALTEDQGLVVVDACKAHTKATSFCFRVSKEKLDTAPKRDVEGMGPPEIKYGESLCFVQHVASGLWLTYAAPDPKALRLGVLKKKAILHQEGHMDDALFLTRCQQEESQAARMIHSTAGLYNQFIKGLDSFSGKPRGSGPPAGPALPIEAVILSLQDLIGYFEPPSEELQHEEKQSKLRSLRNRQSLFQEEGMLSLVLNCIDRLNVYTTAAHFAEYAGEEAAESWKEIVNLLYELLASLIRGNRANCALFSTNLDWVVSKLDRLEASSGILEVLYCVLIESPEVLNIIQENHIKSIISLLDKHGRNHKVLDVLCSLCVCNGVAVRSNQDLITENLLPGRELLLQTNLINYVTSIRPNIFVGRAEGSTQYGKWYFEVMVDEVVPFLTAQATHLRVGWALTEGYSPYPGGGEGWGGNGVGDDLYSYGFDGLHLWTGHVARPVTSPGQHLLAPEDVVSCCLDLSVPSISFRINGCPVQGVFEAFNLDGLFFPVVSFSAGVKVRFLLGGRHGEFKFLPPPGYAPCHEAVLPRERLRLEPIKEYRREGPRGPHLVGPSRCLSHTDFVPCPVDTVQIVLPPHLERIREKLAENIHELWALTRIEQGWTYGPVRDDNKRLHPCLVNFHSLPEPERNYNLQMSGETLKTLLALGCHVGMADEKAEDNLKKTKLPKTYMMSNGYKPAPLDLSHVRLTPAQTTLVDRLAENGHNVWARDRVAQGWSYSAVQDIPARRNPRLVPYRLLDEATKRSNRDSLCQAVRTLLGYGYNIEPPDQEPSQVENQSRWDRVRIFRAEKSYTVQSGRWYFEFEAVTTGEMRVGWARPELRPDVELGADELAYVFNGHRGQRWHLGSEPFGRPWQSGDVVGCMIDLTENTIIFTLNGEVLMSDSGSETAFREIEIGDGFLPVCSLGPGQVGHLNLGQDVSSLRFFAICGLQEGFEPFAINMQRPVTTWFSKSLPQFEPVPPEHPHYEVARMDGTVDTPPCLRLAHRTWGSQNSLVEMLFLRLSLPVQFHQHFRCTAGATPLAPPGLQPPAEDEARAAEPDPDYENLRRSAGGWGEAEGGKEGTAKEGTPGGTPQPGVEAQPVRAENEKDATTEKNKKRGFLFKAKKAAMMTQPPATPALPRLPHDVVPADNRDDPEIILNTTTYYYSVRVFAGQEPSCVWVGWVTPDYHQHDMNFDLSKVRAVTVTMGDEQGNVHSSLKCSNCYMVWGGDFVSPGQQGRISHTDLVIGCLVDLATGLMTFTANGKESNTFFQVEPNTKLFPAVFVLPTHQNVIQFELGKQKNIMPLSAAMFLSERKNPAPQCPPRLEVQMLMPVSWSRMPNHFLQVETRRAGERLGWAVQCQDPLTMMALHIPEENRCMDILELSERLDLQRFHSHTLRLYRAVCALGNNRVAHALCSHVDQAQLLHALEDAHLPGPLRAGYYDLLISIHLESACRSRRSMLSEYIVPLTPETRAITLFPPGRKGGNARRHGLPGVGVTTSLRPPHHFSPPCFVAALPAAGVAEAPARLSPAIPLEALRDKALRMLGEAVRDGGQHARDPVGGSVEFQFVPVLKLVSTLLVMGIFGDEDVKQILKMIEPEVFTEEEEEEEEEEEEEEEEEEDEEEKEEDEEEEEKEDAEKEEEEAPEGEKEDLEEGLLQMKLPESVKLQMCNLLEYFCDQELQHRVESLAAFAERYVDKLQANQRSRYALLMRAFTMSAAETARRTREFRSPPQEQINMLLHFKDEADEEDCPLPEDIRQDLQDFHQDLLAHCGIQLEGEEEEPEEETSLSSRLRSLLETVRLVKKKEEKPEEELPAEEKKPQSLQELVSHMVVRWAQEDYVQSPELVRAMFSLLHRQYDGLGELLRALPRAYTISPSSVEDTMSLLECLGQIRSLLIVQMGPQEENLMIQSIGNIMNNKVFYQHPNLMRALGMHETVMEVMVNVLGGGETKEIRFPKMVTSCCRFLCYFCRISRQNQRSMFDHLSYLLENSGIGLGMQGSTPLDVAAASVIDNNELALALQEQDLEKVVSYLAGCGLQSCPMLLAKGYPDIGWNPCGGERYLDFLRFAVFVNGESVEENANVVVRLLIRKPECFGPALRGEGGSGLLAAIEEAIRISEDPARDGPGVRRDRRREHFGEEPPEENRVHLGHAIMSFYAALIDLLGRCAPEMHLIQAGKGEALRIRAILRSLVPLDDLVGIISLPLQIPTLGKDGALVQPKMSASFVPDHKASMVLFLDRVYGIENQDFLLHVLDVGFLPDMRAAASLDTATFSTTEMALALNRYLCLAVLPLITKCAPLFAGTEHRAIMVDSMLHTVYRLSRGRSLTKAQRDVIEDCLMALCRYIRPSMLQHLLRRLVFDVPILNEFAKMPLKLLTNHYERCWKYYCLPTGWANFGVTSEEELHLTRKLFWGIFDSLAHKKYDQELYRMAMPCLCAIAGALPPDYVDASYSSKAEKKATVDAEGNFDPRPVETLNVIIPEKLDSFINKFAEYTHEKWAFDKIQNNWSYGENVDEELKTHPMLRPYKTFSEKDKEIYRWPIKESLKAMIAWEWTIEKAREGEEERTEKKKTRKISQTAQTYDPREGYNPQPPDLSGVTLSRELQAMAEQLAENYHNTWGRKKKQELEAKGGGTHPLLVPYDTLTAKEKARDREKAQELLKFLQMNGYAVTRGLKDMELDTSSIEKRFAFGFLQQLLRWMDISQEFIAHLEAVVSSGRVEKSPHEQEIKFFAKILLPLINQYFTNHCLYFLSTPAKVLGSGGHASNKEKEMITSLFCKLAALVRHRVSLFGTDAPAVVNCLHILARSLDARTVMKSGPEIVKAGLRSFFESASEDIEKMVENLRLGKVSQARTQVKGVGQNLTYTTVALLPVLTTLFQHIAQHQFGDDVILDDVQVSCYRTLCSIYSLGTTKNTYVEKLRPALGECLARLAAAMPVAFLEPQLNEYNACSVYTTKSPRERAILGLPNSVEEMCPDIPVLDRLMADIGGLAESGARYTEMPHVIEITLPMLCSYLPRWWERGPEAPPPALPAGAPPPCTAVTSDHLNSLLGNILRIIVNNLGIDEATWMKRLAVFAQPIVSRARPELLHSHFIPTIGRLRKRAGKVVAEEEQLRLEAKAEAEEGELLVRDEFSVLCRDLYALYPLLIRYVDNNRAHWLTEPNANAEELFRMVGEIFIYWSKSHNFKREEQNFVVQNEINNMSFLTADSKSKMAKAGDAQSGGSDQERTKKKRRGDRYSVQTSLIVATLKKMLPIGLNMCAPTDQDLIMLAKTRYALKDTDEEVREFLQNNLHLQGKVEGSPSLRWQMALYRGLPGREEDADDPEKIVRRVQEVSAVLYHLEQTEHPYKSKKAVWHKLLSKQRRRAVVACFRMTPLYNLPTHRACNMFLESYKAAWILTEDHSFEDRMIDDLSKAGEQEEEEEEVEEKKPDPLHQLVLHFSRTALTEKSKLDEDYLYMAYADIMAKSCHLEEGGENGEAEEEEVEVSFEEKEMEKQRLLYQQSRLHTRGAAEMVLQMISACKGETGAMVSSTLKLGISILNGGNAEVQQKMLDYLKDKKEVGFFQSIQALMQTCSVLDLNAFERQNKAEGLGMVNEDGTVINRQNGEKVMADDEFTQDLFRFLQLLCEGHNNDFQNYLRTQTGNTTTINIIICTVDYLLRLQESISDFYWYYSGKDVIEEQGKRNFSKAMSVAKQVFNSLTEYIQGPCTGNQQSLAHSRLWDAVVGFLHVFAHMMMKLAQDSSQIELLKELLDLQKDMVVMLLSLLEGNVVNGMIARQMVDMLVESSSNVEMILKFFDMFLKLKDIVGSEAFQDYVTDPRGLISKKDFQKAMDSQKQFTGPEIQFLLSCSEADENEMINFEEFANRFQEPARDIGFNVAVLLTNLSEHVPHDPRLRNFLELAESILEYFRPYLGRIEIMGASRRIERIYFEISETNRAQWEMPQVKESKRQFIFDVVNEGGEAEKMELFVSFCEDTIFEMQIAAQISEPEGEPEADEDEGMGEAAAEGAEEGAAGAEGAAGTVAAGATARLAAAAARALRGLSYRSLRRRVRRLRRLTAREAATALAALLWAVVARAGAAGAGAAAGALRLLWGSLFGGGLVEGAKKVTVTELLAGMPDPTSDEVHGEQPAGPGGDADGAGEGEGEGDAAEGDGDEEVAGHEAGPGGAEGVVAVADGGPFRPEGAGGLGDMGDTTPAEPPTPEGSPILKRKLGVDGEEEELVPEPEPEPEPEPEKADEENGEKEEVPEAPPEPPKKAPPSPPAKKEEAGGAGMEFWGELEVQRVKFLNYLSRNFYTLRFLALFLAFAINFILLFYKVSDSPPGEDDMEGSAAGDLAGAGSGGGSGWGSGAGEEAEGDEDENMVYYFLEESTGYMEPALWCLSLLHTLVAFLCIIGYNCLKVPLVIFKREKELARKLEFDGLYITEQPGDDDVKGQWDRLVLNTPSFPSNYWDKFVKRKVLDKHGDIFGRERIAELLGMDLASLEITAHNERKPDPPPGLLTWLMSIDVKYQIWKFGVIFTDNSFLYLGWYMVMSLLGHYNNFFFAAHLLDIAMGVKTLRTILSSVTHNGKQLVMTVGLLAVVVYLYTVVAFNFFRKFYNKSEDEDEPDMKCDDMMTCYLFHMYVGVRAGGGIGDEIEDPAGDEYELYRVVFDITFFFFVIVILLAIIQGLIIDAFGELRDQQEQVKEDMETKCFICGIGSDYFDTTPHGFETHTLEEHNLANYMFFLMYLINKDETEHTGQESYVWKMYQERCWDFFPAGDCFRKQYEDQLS
pIC50: −log10 of the molar value.

# annotated cases, reported pIC50 shown
COMPOUND: CC(C)C1(O)C(OC(=O)c2ccc[nH]2)C2(O)C3(C)CC4(O)OC5(C(O)C(CSCCCCO)CCC35O)C2(O)C41C (stereo not drawn) [Compound 4, 21-(4-Hydroxybutylmercapto)-ryanodine]
pIC50: > 6.00
--
COMPOUND: CC1CCC2(O)C3(C)CC4(O)OC2(C1OC(=O)CCNC(=O)c1ccc(N=[N+]=[N-])cc1)C1(O)C3(O)C(OC(=O)c2ccc[nH]2)C(O)(C(C)C)C41C (stereo not drawn)
pIC50: > 7.00
--
COMPOUND: CC(C)C1(O)C(OC(=O)c2ccc[nH]2)C2(O)C3(C)CC4(O)OC5(C(O)C(CSCCCCOC(=O)c6ccc(N=[N+]=[N-])cc6)CCC35O)C2(O)C41C (stereo not drawn)
pIC50: < 7.00
--
COMPOUND: CC(C)C1(O)C(OC(=O)c2ccc[nH]2)C2(O)C3(C)CC4(O)OC5(C(O)C(CSCCOC(=O)C(=[N+]=[N-])C(F)(F)F)CCC35O)C2(O)C41C (stereo not drawn)
pIC50: > 6.00
--
COMPOUND: CC1CCC2(O)C3(C)CC4(O)OC2(C1OC(=O)CCNC(=O)c1ccc(C(=O)c2ccccc2)cc1)C1(O)C3(O)C(OC(=O)c2ccc[nH]2)C(O)(C(C)C)C41C (stereo not drawn)
pIC50: > 7.00

Shifting focus to the compound that follows.
Data request: Given CC1CCC2(O)C3(C)CC4(O)OC2(C1OC(=O)CCNC(=O)c1cc(N=[N+]=[N-])ccc1[N+](=O)[O-])C1(O)C3(O)C(OC(=O)c2ccc[nH]2)C(O)(C(C)C)C41C (stereo not drawn) , state its recorded pIC50.
Data returned: > 7.00

* * *

molecular target: cardiac ryanodine receptor (cardiac membranes) (Canis lupus familiaris, UniProt A0A8I3MT21); construct: Canine cardiac junctional SR vesicles were isolated as described previously; assay: [3H]Ryanodine competition binding to cardiac membranes
ATTRIBUTE_MEASURED: IC50 (nM)
The reply should contain only the number, in nM.

Data request: Given CC1CCC2(O)C3(C)CC4(O)OC2(C1OC(=O)CCNC(=O)c1ccc(N=[N+]=[N-])cc1)C1(O)C3(O)C(OC(=O)c2ccc[nH]2)C(O)(C(C)C)C41C (stereo not shown) , state its recorded IC50.
Data returned: 89

* * *

Target: anti-ryanodine antibodies
Test: Competitive radioimmunoassay: inhibition of [3H]ryanodine-antibody binding (dextran-coated charcoal assay)
Details: method of Muller; read-out: average antibody apparent dissociation constant (Kd) for the [3H]ryanodine-antibody complex
Experimental: Binding was performed in triplicate in 1.5 ml polypropylene tubes. […] Following the addition of serial dilutions of antibody, the tubes were shaken and incubated for 1 h at room temperature. The tubes were placed on ice for 10 min and then 0.2 ml of stirred, ice-cold dextran-coated charcoal (0.0625% Dextran T-70, 0.625% Norit A charcoal in TSG) was added to each tube. The tubes were shaken and incubated for an additional 10 min on ice. […]
ATTRIBUTE_MEASURED: Kd (nM)
The reply should contain only the number, in nM.

Data request: # returns recorded Kd (system: anti-ryanodine antibodies) for CC1CCC2(O)C3(C)CC4(O)OC2(C1O)C1(O)C3(O)C(OC(=O)c2ccc[nH]2)C(O)(C(C)C)C41C (stereo not shown) [[^3 H]ryanodine, reference compound]
Data returned: 1

* * *

molecular target: skeletal muscle ryanodine receptor (Oryctolagus cuniculus, UniProt P11716); construct: Rabbit skeletal muscle triads were prepared as previously described; from tissue; host or cells: rabbit skeletal muscle triads; assay: [3H]Ryanodine competition binding to rabbit skeletal muscle triads; details: half-maximal inhibition of [3H]ryanodine binding to triads, skeletal muscle triads, 1 nM [3H]ryanodine, 1 hr at 37° C.
pIC50: −log10 of the molar value.
ATTRIBUTE_MEASURED: pIC50

Data request: Given CC1CCC2(O)C3(C)CC4(O)OC2(C1OC(=O)CCNC(=O)c1ccc(N=[N+]=[N-])cc1)C1(O)C3(O)C(OC(=O)c2ccc[nH]2)C(O)(C(C)C)C41C (stereo not shown) , state its recorded pIC50.
Data returned: ~7.43

* * *

Listed here: items and their measured pIC50.
biological target: anti-ryanodine antibodies; experiment: Competitive radioimmunoassay: inhibition of [3H]ryanodine-antibody binding (dextran-coated charcoal assay); set-up: species or system rabbit; settings: from FIG. 5; unit inferred; read-out: IC50 for binding to anti-ryanodine antibodies
pIC50: −log10 of the molar value.

# annotated cases, reported pIC50 shown
MOLECULE: CC1CCC2(O)C3(C)CC4(O)OC2(C1O)C1(O)C3(O)C(OC(=O)c2ccc[nH]2)C(O)(C(C)C)C41C (stereo not shown) [Ryanodine, reference compound]
pIC50: > 8.00
--
MOLECULE: CC(C)C1(O)C(OC(=O)c2ccc[nH]2)C2(O)C3(C)CC4(O)OC5(C(O)C(CSCCCCO)CCC35O)C2(O)C41C (stereo not shown) [Compound 4, 21-(4-Hydroxybutylmercapto)-ryanodine]
pIC50: > 6.00
--
MOLECULE: CC1CCC2(O)C3(C)CC4(O)OC2(C1OC(=O)CCNC(=O)c1ccc(N=[N+]=[N-])cc1)C1(O)C3(O)C(OC(=O)c2ccc[nH]2)C(O)(C(C)C)C41C (stereo not shown)
pIC50: > 7.00
--
MOLECULE: CC1CCC2(O)C3(C)CC4(O)OC2(C1OC(=O)CCNC(=O)c1ccc(C(=O)c2ccccc2)cc1)C1(O)C3(O)C(OC(=O)c2ccc[nH]2)C(O)(C(C)C)C41C (stereo not shown)
pIC50: > 7.00
--
MOLECULE: CC1CCC2(O)C3(C)CC4(O)OC2(C1OC(=O)CCNC(=O)c1cc(N=[N+]=[N-])ccc1[N+](=O)[O-])C1(O)C3(O)C(OC(=O)c2ccc[nH]2)C(O)(C(C)C)C41C (stereo not shown)
pIC50: > 7.00

Data request: # returns recorded pIC50 (system: anti-ryanodine antibodies) for CC(C)C1(O)C(OC(=O)c2ccc[nH]2)C2(O)C3(C)CC4(O)OC5(C(O)C(CSCCOC(=O)C(=[N+]=[N-])C(F)(F)F)CCC35O)C2(O)C41C (stereo not shown)
Data returned: > 6.00

Data request: # returns recorded pIC50 (system: anti-ryanodine antibodies) for CC(C)C1(O)C(OC(=O)c2ccc[nH]2)C2(O)C3(C)CC4(O)OC5(C(O)C(CSCCCCOC(=O)c6ccc(N=[N+]=[N-])cc6)CCC35O)C2(O)C41C (stereo not shown)
Data returned: < 7.00

* * *

target: anti-ryanodine antibodies; experiment: Competitive radioimmunoassay: inhibition of [3H]ryanodine-antibody binding (dextran-coated charcoal assay); set-up: species or system rabbit; conditions: 1 nM [3H]ryanodine, 1:8,000 dilution of anti-ryanodine antibody; read-out: Inhibition of [^3 H] ryanodine-antibody binding, IC50
ATTRIBUTE_MEASURED: pIC50
// scale note: pIC50 = -log10(conc_M); give the bare number

COMPOUND: CC(C)C1(O)C(OC(=O)c2ccc[nH]2)C2(O)C3(C)CC4(O)OC5(C(O)C(CSCCOC(=O)C(=[N+]=[N-])C(F)(F)F)CCC35O)C2(O)C41C (stereo not shown) [Compound 7]
OBSERVED_VALUE: 8.40
//
COMPOUND: CC1CCC2(O)C3(C)CC4(O)OC2(C1OC(=O)CCNC(=O)c1ccc(N=[N+]=[N-])cc1)C1(O)C3(O)C(OC(=O)c2ccc[nH]2)C(O)(C(C)C)C41C (stereo not shown) [Compound 10]
OBSERVED_VALUE: 8.49
//
COMPOUND: CC(C)C1(O)C(OC(=O)c2ccc[nH]2)C2(O)C3(C)CC4(O)OC5(C(O)C(CSCCCCO)CCC35O)C2(O)C41C (stereo not shown) [Compound 4, 21-(4-Hydroxybutylmercapto)-ryanodine]
OBSERVED_VALUE: 7.60
//
COMPOUND: CC1CCC2(O)C3(C)CC4(O)OC2(C1O)C1(O)C3(O)C(OC(=O)c2ccc[nH]2)C(O)(C(C)C)C41C (stereo not shown) [Ryanodine, reference compound]
OBSERVED_VALUE: 8.80
//
COMPOUND: CC(C)C1(O)C(OC(=O)c2ccc[nH]2)C2(O)C3(C)CC4(O)OC5(C(O)C(CSCCCCOC(=O)c6ccc(N=[N+]=[N-])cc6)CCC35O)C2(O)C41C (stereo not shown) [Compound 6]
OBSERVED_VALUE: 6.70
//
COMPOUND: CC1CCC2(O)C3(C)CC4(O)OC2(C1OC(=O)CCNC(=O)c1cc(N=[N+]=[N-])ccc1[N+](=O)[O-])C1(O)C3(O)C(OC(=O)c2ccc[nH]2)C(O)(C(C)C)C41C (stereo not shown) [Compound 11]
OBSERVED_VALUE: 8.49

Shifting focus to the compound that follows.
Data request: # returns recorded pIC50 (system: anti-ryanodine antibodies) for CC1CCC2(O)C3(C)CC4(O)OC2(C1OC(=O)CCNC(=O)c1ccc(C(=O)c2ccccc2)cc1)C1(O)C3(O)C(OC(=O)c2ccc[nH]2)C(O)(C(C)C)C41C (stereo not shown) [Compound 12]
Data returned: 8.22
